Answer each item with its documented inhibition.
Assay info: EBV LMP1-driven NF-kappaB luciferase reporter inhibitors, primary screen, cell-based, luminescence, single point (AID 504558);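 note: 0% = neutral control wells and 100% = reference inhibitor control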
Particulars: LMP1-induced NF-kappaB luciferase reporter cells, at 12.5 µM, stronger effect = higher value
About 2,400 (0.69%) of roughly 350,000 compounds were called active. This is one part of a sample in which actives are shown more often than they occur.
Express it in %; write the number only.

Supply inhibition value. Item: COCOCCn1cc(CN2CCS(=O)(=O)N(Cc3ccc(-c4cccc(N(C)C)c4)cc3)C(CC(C)C)C2=O)nn1 (stereo not given)
5.25

Give inhibition for CC(=O)Nc1ccc2nc(NC(=O)CS(=O)(=O)c3ccc(F)cc3)sc2c1
-1.73

Supply recorded inhibition for C[C@H]1CN([C@@H](C)CO)C(=O)c2cc(Br)cnc2O[C@H]1CN(C)S(=O)(=O)c1cccs1 here.
-1.05

Retrieve inhibition measured for COc1ccc(OC)c(NC(=O)C2CCCN2S(=O)(=O)c2ccc3c(c2)CC(C)N3C(C)=O)c1 (stereo not given) and print it.
1.47

Determine its reported inhibition: O=C(COC(=O)c1cccc(Cl)c1Cl)NC1CCCCCC1
-5.21

Specify reported inhibition for the compound shown: Cc1ccc(Cc2c(-c3ccc(C)cc3)nc3c4ccccc4ccn23)cc1
-19.4

Assign inhibition to the following record: CC1(C)OC(=O)C2=C(CC(c3ccccc3)OC2CCc2ccccc2)O1 (stereo not given)
3.89

Tell me inhibition reported for O=C(OCc1cn([C@@H]2C[C@H](c3ccc(Cl)cc3)N(Cc3cccs3)C[C@H]2O)nn1)c1ccccc1
3.08

Let me know recorded inhibition for C[C@H](CO)N1C[C@H](C)[C@@H](CN(C)C(=O)C2CCCCC2)OCc2cnnn2CCCC1=O , thanks.
0.386

Write down inhibition measured for item C[C@H]1CN([C@@H](C)CO)C(=O)CCCn2cc(nn2)CO[C@@H]1CN(C)S(=O)(=O)c1ccc(-c2ccccc2)cc1
1.8

Give the reported value of inhibition for this record: O=C(OCc1ccccc1)N1CCC2CC1c1ccc(-c3ccc4c(c3)OCO4)cc12 (stereo not given)
-5.51

Please give measured inhibition of the following entry: O=C(Nc1ccc(Cl)cn1)c1ccccc1-c1ccccc1
3.03

# return recorded inhibition for entry C[C@H]1Cn2cnc(C(=O)N[C@@H](Cc3c[nH]c4ccccc34)C(=O)OC(C)(C)C)c2C(=O)N1
-25.3

Note down inhibition recorded for Cc1nc2ccccc2nc1CC(O)(c1ccccc1)c1ccccc1
-2.04

For the compound O=C(NCC(F)(F)F)c1ccc(S(=O)(=O)NCCc2ccc3c(c2)OCCO3)cc1 , give its measured inhibition value.
0.519
